- Procedure Summary: Cyclic voltammetry, redox potentials
- Format: physicochemical
- Conditions: no added halide
Measured Quantity: ΔE (mV)
Quick reminder: number only, in mV, skip the unit.

>>> recorded_result("CN(C)c1cccc2cccc([NH+](C)C)c12.CN(CC(=O)[O-])Cc1ccccn1.[Cl-].[Cl-].[Cl-].[Fe+3] [Fe^III N2O1py, [PSH][Fe^III(N2O1py)(Cl)3]]")
128

**Q:** Name the recorded ΔE for CN(CC(=O)[O-])Cc1ccccn1.[Cl-].[Cl-].[Fe+2] [[Fe^II(N2O1py)(Cl)2]^−, [PSH][Fe^II(N2O1py)(Cl)2]] .
**A:** 96
